# Tested on: MCF7 breast
# test name: NCI-60 one-dose screen, 48 h
# experimental context: 10 µM unless noted
The panel holds about 83,000 compounds, 20% with a hit somewhere; the sample as a whole holds those more often. Calls of active or inactive are those of the source. The calls were made as follows: active = growth percent below 10; inactive = the rest.
Outcomes: active, inactive

compound | class name
N#CSc1c[nH]c2cccc(/C=C/C(=O)/C=C(O)/C=C/c3cccc4[nH]cc(SC#N)c34)c12 | active
Cc1ccc2nc(NC(=O)CSc3nc(-c4ccccc4)c(C#N)c4nnnn34)sc2c1 | inactive
CCCCNC(=O)Oc1ccc(/C(=C(/C)Cc2ccc(OC)cc2)c2ccc(OCCN3CCCCCC3)cc2)cc1 | inactive
COc1ccc(/C=C(/c2ccccc2)[N+](=O)[O-])c(OC)c1 | active
O=C(NNC(=O)c1ccc(NC(=O)c2ccccn2)cc1)Nc1ccc2ccccc2c1 | inactive
O=C(Nc1ccc(Cl)cc1)Oc1c(Cl)c(Cl)c(Cl)c(Cl)c1Cl | inactive
Nc1[nH]c(=S)nc2oc(-c3ccccc3)c(-c3ccccc3)c12 | inactive
Cc1cccc(-c2nc(Nc3ccc4ncsc4c3)c3ccccc3n2)n1 | active
CN(Cc1cc(Br)cc(Br)c1O)Cc1cc(Br)cc(Br)c1O | inactive
C#CCNC(=O)[C@]1(C)CCC[C@@]2(C)[C@H]1CC=C1C=C(C(C)C)CC[C@@H]12 | inactive
COc1cc(Cl)c(C)cc1NC(=O)c1cc2ccccc2cc1O | inactive
COC(=O)c1nc(-c2ccccc2)oc1S(=O)(=O)NCC(c1ccc(Cl)cc1)N1CCOCC1 (centres undefined) | inactive
C#Cc1cccc(Nc2nc(C)nc3cc(NC(=O)CCl)ccc23)c1 | active
COCCn1cc(-c2csc(-c3c[nH]c4ccc(Br)cc34)n2)c2cccnc21 | inactive
O=C1c2ccccc2C(=O)c2c1c(C(=O)NCc1ccccc1)c1ccccn21 | inactive
Cc1ccc(C(=O)c2ccc(CC(=O)NN3C(=O)c4ccccc4C3=O)n2C)cc1 | inactive
C=C1C(=O)O[C@H]2[C@H]1CC/C(CNC(=O)c1c[nH]c3ccc(F)cc13)=C\CC[C@@]1(C)O[C@@H]21 | active
Cc1c2ccncc2c(C)c2c1c1cc(CO)ccc1n2C | active
CN1CCN(Cc2ccc(NC(=O)c3cncc(C#Cc4cnc(N)c5ncccc45)c3)cc2C(F)(F)F)CC1 | active
O=S(=O)(Oc1ccc(Br)cc1)c1ccc(Cl)cc1 | inactive
CN(C)CCCC1(c2ccc(F)cc2)OCc2cc(-c3cc4ccccc4s3)ccc21 (centres undefined) | active
O=C(CN1CCN(c2cc3c(cc2F)c(=O)c(C(=O)O)cn3C2CC2)CC1)N/N=C/c1ccco1 | inactive
O=C(Cc1cccc(OC(F)(F)F)c1)Nc1ccc(CCCCc2nnc(NC(=O)Cc3ccccn3)s2)nn1 | inactive
O=C(CSc1nc(-c2ccccc2)cc(=O)[nH]1)Nc1nc(-c2ccccc2)cs1 | inactive
COc1cc(/C=C2\CN(S(=O)(=O)c3ccccc3)C/C(=C\c3cc(CN4CCCCC4)c(O)c(OC)c3)C2=O)cc(CN2CCCCC2)c1O | active
CCOC(=O)c1c(C)c2c(n1Cc1ccccc1)CSCC2=O | active
NS(=O)(=O)c1ccc(-c2cc(-c3nnc(SCC(=O)Nc4ccc(C(=O)/C=C/c5ccc(Cl)cc5)cc4)n3-c3ccccc3)c3ccccc3n2)cc1 | inactive
Cc1ccc2c(=O)cc(C(=O)Nc3sc4c(c3C(=O)NCc3cccnc3)CCCC4)oc2c1C | inactive
O=C(N=Nc1c(O)[nH]c2ccccc12)Nc1ccc(F)cc1 | inactive
CSC(SC)=C(C#N)c1nc2ccccc2s1 | inactive
COc1cccc(/C=N/NC(=O)c2ccccc2N2CCCC2)c1O | active
COc1cc(OC)c2sc(-c3ccc(-n4cncc4-c4cc(OC)c(OC)c(OC)c4)cc3)nc2c1 | inactive
C=CCC(CCCC)(C(=O)OCC)C(=O)OCC | inactive
Cc1cn(-c2cc(NC(=O)c3cncc(C#Cc4c(N)ncc5ccc(F)cc45)c3)cc(C(F)(F)F)c2)cn1 | inactive
CCCCCN(CCCCC)CC(O)c1cc(C)c2ccc3cc(C(C)C)ccc3c2c1 (centres undefined) | active
Cc1ccc(NC(=O)Cn2c(Br)nc3c2c(=O)n(C)c(=O)n3C)cc1 | inactive
CCNC(=O)Oc1ccc(/C(=C(/CC)Cc2ccccc2)c2ccc(OCCN3CCCC3)cc2)cc1 | inactive
CCOC(=O)c1c(C)nc2ccccc2c1/C=C/c1ccccc1 | inactive
CCOC(=O)C1=C(C)/C(=C\c2[nH]c(C)c(C(=O)OCC)c2C)N=C1C | inactive

Source of measurements: PubChem BioAssay (NCI)
